- method_description: in vivo
- protocol_conditions: female, NIH Swiss, mouse, brain, po, 100 mg/kg
readout_label: Kp
Just the number.

Identify Kp associated with the molecule [N-]=[N+]=Nc1ncnc2c1ncn2[C@@H]1O[C@H](CO)[C@@H](O)[C@@H]1O 0.33

---

- method_description: in vivo
- protocol_conditions: female, NIH-Swiss, mouse, in vivo, iv, 20 mg/kg
readout_label: Kp
Just the number.

Identify Kp associated with the compound O=c1[nH]cnc2c1ncn2[C@@H]1O[C@H](CO)C[C@@H]1F 0.165

---

- method_description: In vitro stability in PBS, mouse serum, brain and liver homogenate (FAAddP, FMAddA)
- Assay type: in vitro ADME
- protocol_conditions: mouse, mouse serum, 37° C.; read-out: degradation half-life in mouse serum (converted)
readout_label: half-life at 70 μM (h)
API: value field is a number in h; no unit string.

Identify half-life at 70 μM associated with the compound [N-]=[N+]=Nc1ncnc2c1ncn2C1OC(CO)CC1F (stereo not shown) 2.41
